Test: pH-dependent degradation
Assay type: physicochemical
Conditions: pH-Werte < 3; nach bereits 2 Stunden; read-out: Abbau
Source text: Darüber hinaus weist Prasugrel auch einen stark pH-abhängigen Abbau auf. Bei pH-Werten von < 3 ist ein Abbau von mehr als 1 % nach bereits 2 Stunden zu beobachten. Dies schränkt die möglichen Hilfsstoffe bei der Herstellung pharmazeutischer Formulierungen ein.
measurementKind: degraded at 2 h

Note degraded at 2 h for the molecule shown: CC(=O)Oc1cc2c(s1)CCN(C(C(=O)C1CC1)c1ccccc1F)C2 (stereo not shown)
> 1%

* * *

test: Solubility in water; assay type: physicochemical; settings: in Wasser, freie Base, read-out: Löslichkeit
measurementKind: solubility

// Input: CC(=O)Oc1cc2c(s1)CCN(C(C(=O)C1CC1)c1ccccc1F)C2 (stereo not shown) [Prasugrel] . Output its solubility only.
57 µg/mL
